Where do the numbers come from? From ChEMBL document CHEMBL1154310.

System: Candida albicans
methodDescription: Antifungal activity against Candida albicans at 5 mg/ml after 24 to 48 hrs by agar diffusion technique
Format: functional
experimentalSetup: read-out: IZ
# if value of zone of inhibition at 5000 µg/mL reaches 10 mm, tag Met; if it stays below, tag Not met

[
  {
    "cpdSmiles": "Cc1c(C(=O)N/N=C(/C=C/c2ccccc2)C(=N/Nc2ccc([N+](=O)[O-])cc2)\\N2CCCCC2)oc2ccccc12",
    "labelValue": "Met"
  },
  {
    "cpdSmiles": "CC(=N\\NC(=O)c1oc2ccccc2c1C)/C(=N/Nc1ccc([N+](=O)[O-])cc1)S(=O)(=O)c1ccccc1",
    "labelValue": "Met"
  },
  {
    "cpdSmiles": "Cc1c(C(=O)N/N=C/C=C/c2ccccc2)oc2ccccc12",
    "labelValue": "Not met"
  },
  {
    "cpdSmiles": "C/C=N/NC(=O)c1oc2ccccc2c1C",
    "labelValue": "Not met"
  },
  {
    "cpdSmiles": "Cc1c(C(=O)N/N=C(/C=C/c2ccc(Cl)cc2)C(=N/Nc2ccc(Br)cc2)\\N2CCCCC2)oc2ccccc12",
    "labelValue": "Met"
  },
  {
    "cpdSmiles": "CC(=N\\NC(=O)c1oc2ccccc2c1C)/C(Cl)=N/Nc1ccc([N+](=O)[O-])cc1",
    "labelValue": "Met"
  }
]
